Hello, the source for this data is a melting point compilation (Tetko et al.; mined from patent text by program, amines drawn as free bases though some values may be those of a salt), in case you need it.

Residues, ends and D or L forms follow the SMILES beside them. *: point of attachment. Tos = Cc1ccc(S(=O)(=O)*)cc1
METRIC_NAME: melting point

melting point lookup needed for CCCCN(C1CS(=O)(=O)c2ccccc21)S(C)(=O)=O (configuration not stated) , thanks.
171 to 173 °C

melting point lookup needed for O=C(O)/C=C/c1ccc(Oc2c(-c3ccccc3)c(CCC(F)(F)F)cc3cc(O)ccc23)cc1 , thanks.
118 to 120 °C

melting point lookup needed for C=CCN(CC=C)c1nc(NC(=O)c2ccc(Cl)cc2)n2oc(=O)nc2n1 , thanks.
192 to 194 °C

melting point lookup needed for CCCCCCCCCCOc1ccc(Br)cc1C12CC3CC(CC(C3)C1)C2 , thanks.
69 to 70 °C

melting point lookup needed for Cc1ccc(S(=O)(=O)NCC(=O)N[C@@H](Cc2ccccc2)C(=O)O)cc1 (Tos-Gly-Phe-OH) , thanks.
157 to 161 °C

melting point lookup needed for CCS(=O)(=O)Nc1cc(-c2nc[nH]c(=O)c2Cl)c(F)cc1C#N , thanks.
249 to 252 °C

melting point lookup needed for CCOC(=O)C1=CC(C(=O)c2ccccc2O)=CN2CCc3c([nH]c4ccc(OC)cc34)C12C(=O)OCC (configuration not stated) , thanks.
212 °C

melting point lookup needed for CC(CN(C)C)CC(CNC(=O)NCCCl)(c1ccc(F)cc1)c1ccc(F)cc1 (configuration not stated) , thanks.
105 to 107 °C

melting point lookup needed for CC(=O)NC(=O)C(=O)C(C)(C)C , thanks.
82 to 84 °C

melting point lookup needed for O=C(CNCc1cccc(C(F)(F)F)c1)Nc1cccc2c1C(=O)c1c(NC(=O)CNCc3cccc(C(F)(F)F)c3)cccc1C2=O , thanks.
190 to 191 °C

melting point lookup needed for Cc1cc(C(N)=O)ncc1C(c1c(F)ccc(F)c1F)S(=O)(=O)CCCC(F)(F)F (configuration not stated) , thanks.
201 to 203 °C

melting point lookup needed for CC1Cc2c(-c3ccccc3)[nH]c(-c3ccccc3)c2CC1C (configuration not stated) , thanks.
133 °C
